- tested target: C-X-C chemokine receptor type 4 (Homo sapiens)
- procedure summary: Inhibition of biotinylated TN14003 binding to CXCR4 in human MDA-MB-231 cells assessed as reduction in fluorescence preincubated for 10 mins followed by biotinylated-TN14003 addition measured after 30 mins by streptavidin-rhodamine staining based immunofluorescence microscopic analysis
- Assay type: cell-based
EC values by entry

| smiles str | EC |
| --- | --- |
| O=C(NCc1ccc(CNS(=O)(=O)c2ccccc2)cc1)c1ccncc1 | 10 nM |
| O=C(NCc1ccc(CNS(=O)(=O)c2ccccc2)cc1)c1ccccc1Cl | 10 nM |
| COc1cccc(C(=O)NCc2ccc(CNS(=O)(=O)c3ccccc3)cc2)c1 | > 1000 nM |
